Test: Caco-2 permeability assay (AB)
Type: in vitro ADME
Conditions: human, apical to basolateral
result_type: Papp A→B (×10⁻⁶ cm/s)
State the answer as a number, implicitly in ×10⁻⁶ cm/s.

// worked examples, Papp A→B included
compound	unit_of_measure	Papp A→B
CC(C)c1ncc(/C=C/c2ccccc2)cc1OS(=O)(=O)O [Compound 1]	×10⁻⁶ cm/s	0.44
CC(C)c1c(O)cc(-c2cc(F)c3cnc(N)nc3c2)cc1OS(=O)(=O)O [Compound 7]	×10⁻⁶ cm/s	0.37
CC(C)c1ncc(/C=C/c2ccc(F)cc2)cc1OS(=O)(=O)O [Compound 6]	×10⁻⁶ cm/s	0.62

// below: Papp A→B requested for another compound
Give me measured Papp A→B, please, for this compound: CC(C)c1c(O)cc(-c2cnc3ccccc3c2)cc1OS(=O)(=O)O [Compound 3]
0.29

* * *

Assay: S9 stability assay
Format: in vitro ADME
Settings: read-out: mouse S9 Clint
Items are presented alongside their recorded intrinsic clearance in mouse S9.
State the answer as a number, implicitly in µL/min/mg.

Give me measured intrinsic clearance in mouse S9, please, for this compound: CC(C)c1c(O)cc(-c2cc3ccccc3cn2)cc1OS(=O)(=O)O [Compound 2]
1.18

* * *

Test: Caco-2 permeability assay (AB)
Format: in vitro ADME
Conditions: human, apical to basolateral
Items are presented alongside their recorded Papp A→B.
State the answer as a number, implicitly in ×10⁻⁶ cm/s.

// worked examples, Papp A→B included
molecule	Papp A→B, ×10⁻⁶ cm/s
CCCc1c(F)cc(/C=C/c2ccccc2)cc1OS(=O)(=O)O [Compound 9]	0.29
CC(C)c1c(F)cc(/C=C/c2ccccc2)cc1OS(=O)(=O)O [Compound 10]	0.25

Give me measured Papp A→B, please, for this molecule: CC(C)c1ncc(/C=C/c2ccccc2F)cc1OS(=O)(=O)O [Compound 5]
0.44

* * *

Items are presented alongside their recorded intrinsic clearance in mouse S9.
Test: S9 stability assay
Type: in vitro ADME
Details: read-out: mouse S9 Clint
State the answer as a number, implicitly in µL/min/mg.

// worked examples, intrinsic clearance in mouse S9 included
smiles_text	unit_of_measure	readout_number
CC(C)c1ncc(/C=C/c2ccccc2F)cc1OS(=O)(=O)O	µL/min/mg	2.64
CC(C)c1ncc(/C=C/c2ccccc2)cc1OS(=O)(=O)O	µL/min/mg	4.91
CC(C)c1c(OP(=O)(O)O)cc(-c2cnc3ccccc3c2)cc1OP(=O)(O)O	µL/min/mg	3.43
CCCc1c(F)cc(/C=C/c2ccccc2)cc1OS(=O)(=O)O	µL/min/mg	0.7
Cc1ccnc2cc(-c3cc(F)c(C(C)C)c(OP(=O)(O)O)c3)ccc12	µL/min/mg	0.68
CC(C)c1ncc(/C=C/c2ccc(F)cc2)cc1OS(=O)(=O)O	µL/min/mg	1.26

Give me measured intrinsic clearance in mouse S9, please, for this compound: CC(C)c1c(O)cc(-c2ccc3cc(F)ccc3n2)cc1OS(=O)(=O)O
0.02

Give me measured intrinsic clearance in mouse S9, please, for this compound: CC(C)c1c(F)cc(/C=C/c2ccccc2)cc1OS(=O)(=O)O
0.47

The origin of these recorded values is patent US20260263431A1.
